Where these numbers come from: ChEMBL document CHEMBL3822420

test system: Staphylococcus aureus; test: Antibacterial activity against methicillin-sensitive Staphylococcus aureus 14-4; format: functional
Reported log10 of MIC by item:
QUANTITY KIND: log10 of MIC (log10 of the value in µg/mL)

COMPOUND	ENDPOINT VALUE
CCCC[C@H](CN(O)C=O)C(=O)N1CC2(CC2)C[C@H]1c1nc2ccccc2[nH]1	0.30
CCCC[C@H](CN(O)C=O)C(=O)N1CC2(CC2)C[C@H]1C(=O)Nc1ccc(C)c(Nc2nccc(-c3cccnc3)n2)c1	-1.82
C[C@H]1COc2c(N3CCN(C)CC3)c(F)cc3c(=O)c(C(=O)O)cn1c23.C[C@H]1COc2c(N3CCN(C)CC3)c(F)cc3c(=O)c(C(=O)O)cn1c23.O	1.20
CCCC[C@H](CN(O)C=O)C(=O)N1CC2(CC2)C[C@H]1c1nc(-c2cccnc2)no1	-0.30
Cc1nc(NNC(=O)[C@H](CC2CCCC2)CN(O)C=O)c(F)c(N2CCN3CCOC[C@@H]3C2)n1	0.00
CCCC[C@H](CN(O)C=O)C(=O)N1CC2(CC2)C[C@H]1C(=O)Nc1cc[nH]n1	1.20
CCCC[C@H](CN(O)C=O)C(=O)N1CC2(CC2)C[C@H]1c1nnc2ccccn12	0.00
CCCC[C@H](CN(O)C=O)C(=O)N1CC2(CC2)C[C@H]1C(=O)Nc1cc(C(C)(C)C)on1	-1.22
CCCC[C@H](CN(O)C=O)C(=O)N1CC2(CC2)C[C@H]1c1nnc(-c2ccccn2)o1	0.30
CCCC[C@H](CN(O)C=O)C(=O)N1CCC[C@H]1C(=O)Nc1ccc(F)c[n+]1[O-]	-0.30
CO/N=C(\C(=O)N[C@@H]1C(=O)N2C(C(=O)[O-])=CCS[C@H]12)c1csc(N)n1.[Na+] [CEFTIZOXIME SODIUM]	0.30
CCCC[C@H](CN(O)C=O)C(=O)N1CC2(CC2)C[C@H]1C(=O)Nc1ncccc1F	-0.30
CCCC[C@H](CN(O)C=O)C(=O)N1CC2(CC2)C[C@H]1C(=O)Nc1cccc(Nc2ncccn2)c1	-0.90
CCCC[C@H](CN(O)C=O)C(=O)N1CC2(CC2)C[C@H]1C(=O)Nc1ccc(F)c[n+]1[O-]	-0.90
CCCC[C@H](CN(O)C=O)C(=O)N1CC2(CC2)C[C@H]1C(=O)Nc1nccc(-c2cccnc2)n1	-0.60

###

assay: MRT (0 to t) in Sprague-Dawley rat at 10 mg/kg, po; type: ADME, organism-based; details: in vivo
Reported MRT last by item:

MOLECULE SMILES	MRT last / h
CCCC[C@H](CN(O)C=O)C(=O)N1CC2(CC2)C[C@H]1C(=O)Nc1ncc(C)s1	4.42
CCCC[C@H](CN(O)C=O)C(=O)N1CC2(CC2)C[C@H]1C(=O)Nc1ccc(F)c[n+]1[O-]	2.04
CCCC[C@H](CN(O)C=O)C(=O)N1CC2(CC2)C[C@H]1C(=O)Nc1ccc(C)c(Nc2nccc(-c3cccnc3)n2)c1	3.32
CCCC[C@H](CN(O)C=O)C(=O)N1CC2(CC2)C[C@H]1c1nc2ccccc2[nH]1	4.13
CCCC[C@H](CN(O)C=O)C(=O)N1CC2(CC2)C[C@H]1C(=O)Nc1cc(C(C)(C)C)on1	3.43
CCCC[C@H](CN(O)C=O)C(=O)N1CC2(CC2)C[C@H]1c1nc(-c2cccnc2)no1	1.68
